Field: IC50. Provide a value for each of the molecules that follow.
# STUDY TARGET: Δ102 HYPE (HYPE103-456) (Homo sapiens, UniProt Q9BVA6, E234G)
# Construct: gene FICD; aa 103-456, lacks TM domain and N-terminus; His6-SUMO tag cleaved by ULP1; pSMT3, E. coli BL21-DE3-RILP; cobalt and size-exclusion purified
# Sequence (Q9BVA6 103-456 E234G): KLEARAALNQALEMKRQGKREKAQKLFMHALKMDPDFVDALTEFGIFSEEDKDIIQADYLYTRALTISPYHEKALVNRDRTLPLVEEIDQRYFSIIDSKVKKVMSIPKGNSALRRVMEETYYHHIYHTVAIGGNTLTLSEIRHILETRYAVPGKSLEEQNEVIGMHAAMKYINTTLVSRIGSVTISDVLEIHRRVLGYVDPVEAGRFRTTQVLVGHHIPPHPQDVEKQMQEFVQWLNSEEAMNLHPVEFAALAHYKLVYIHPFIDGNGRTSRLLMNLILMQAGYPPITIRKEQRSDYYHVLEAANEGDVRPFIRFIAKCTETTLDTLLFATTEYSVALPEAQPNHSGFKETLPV
# TEST DESCRIPTION: fluorescence polarization autoAMPylation with Fl-ATP
# Type: biochemical
Report the value in µM with no unit label.

Can you look up the measured IC50 of "O=C(O)C1=CC(=C(c2ccc(O)c(C(=O)O)c2)c2ccc(O)c(C(=O)O)c2)C=CC1=O" for me?
0.347

Quick check: IC50 of "COc1cc(-c2ccc(N=Nc3ccc4c(S(=O)(=O)O)cc(S(=O)(=O)O)c(N)c4c3O)c(OC)c2)ccc1N=Nc1ccc2c(S(=O)(=O)O)cc(S(=O)(=O)O)c(N)c2c1O" ?
22.5

Query (molecule): "Cc1cc(-c2ccc(N=Nc3ccc4c(S(=O)(=O)O)cc(S(=O)(=O)O)c(N)c4c3O)c(C)c2)ccc1N=Nc1ccc2c(S(=O)(=O)O)cc(S(=O)(=O)O)c(N)c2c1O" ; field requested: IC50
30.4

Hello, the source for this data is paper PMC7582957, in case you need it.
